- Test system: L1210 leukemia ip in BDF1 mice, survival T/C
- test: NCI In Vivo Anticancer Drug Screen. Data for tumor model L1210 Leukemia (intraperitoneal) in B6D2F1 (BDF1) mice
- conditions: endpoint: mean survival time; dose: 100.0 mg/kg/injection; schedule: Q01DX001 (ip); vehicle: saline with Tween-80; higher = longer survival
- Method: The antitumor activity of compounds was measured in mice bearing transplantable tumors. Survival or tumor size were measured and the results are expressed as the measurement made in the treated group (T) divided by the measurement made in the vehicle treated control group (C). The tumor model used in this assay is L1210 Leukemia (intraperitoneal) in B6D2F1 (BDF1) mice
Inconclusive results and toxic doses are left out.
readout-type: T/C

| molecule | data-value |
| --- | --- |
| O=C(O)CCCCCCC(=O)c1ccccc1 | 98 % of control |
| Cc1cccc(NC(=O)Oc2cc(C)c(Cl)cc2C(C)C)c1 | 103 % of control |
| Cc1c(Cl)ccc2c(C(=O)NN)cc(-c3ccc(Cl)cc3)nc12 | 92 % of control |
| Cc1ccc(S(=O)(=O)N(CC(=O)O)Cc2ccccc2)cc1 | 100 % of control |
| CCCCCCCCCCCC(=O)NC(=S)Nc1ccc(C)c(C)c1 | 91 % of control |
| CC(=O)C1CC2C=CCC(C2)C1 (stereo unspecified) | 95 % of control |
